assay: CCK-8 cytotoxicity assay in HK2 cells; assay type: cell-based, human; settings: human, CCK-8, 24 h compound exposure, 3 to 1000 μM, ND: not detected, read-out: IC50 (μM), cytotoxic effects on HK2 cells in vitro
observable: IC50 at 24 h (µM)
A number alone suffices; assume µM.

Q: If you can, please state the reported IC50 at 24 h value of COc1cccc2c1cc([N+](=O)[O-])c1c(C(=O)O)cc3c(c12)OCO3 [AA-I, aristolochic acid I, reference compound] .
Result: 270

# credit: paper PMC12293755
